System: SF-268 CNS
ASSAY_NAME: NCI tumour cell line growth inhibition, 48 h; in the data active means GI50 below about 0.43 µM; inactive means the rest
Could you please pick one outcome from this set? YES = active, NO = inactive

INSERT INTO measurements (molecule, qualitative_label) VALUES
  ('O=C(c1ccccc1)c1nn(-c2ccc(Cl)cc2)c2nc3nc(-c4ccccc4)cc(=O)n3nc12', 'NO'),
  ('COc1cc(-c2cc(C(=O)N3CCN(C(=O)c4ccccc4NCc4ccco4)CC3)nc3cc(-c4ccccc4)nn23)cc(OC)c1OC', 'NO'),
  ('CC(=O)c1ccc(Nc2cc(-n3ccnc3)nc3ccccc23)cc1', 'NO'),
  ('CCOC(=O)CCC(NC(=O)c1ccc(N=Cc2nc3cc(C(F)(F)F)ccc3nc2-c2ccccc2)cc1)C(=O)OCC (stereo not drawn)', 'NO'),
  ('O=c1c(Cl)nnc2sc3ccccc3n12', 'NO');

Below: the item to evaluate.
GET /call?item= O=C1/C(=C\c2ccc(Cl)cc2)CN(C(=S)Nc2ccccc2)C/C1=C\c1ccc(Cl)cc1 returns the recorded outcome of this test.
NO

---

Tested on: UACC-257 melanoma
ASSAY_NAME: NCI tumour cell line growth inhibition, 48 h
OBSERVATION_TYPE: TGI

Some entries whose results are on file:
INSERT INTO measurements (smiles_data, observation_type, experimental_result) VALUES
  ('COc1cc(-c2cc(C(=O)N3CCN(C(=O)c4ccccc4NCc4ccco4)CC3)nc3cc(-c4ccccc4)nn23)cc(OC)c1OC', 'TGI', '> 100 µM'),
  ('O=C1NCC2(CCNCC2)N1c1ccccc1', 'TGI', '> 100 µM');

Now turn to the next compound.
Find the recorded TGI belonging to Cc1cc2nc(N3C(=O)/C(=C/c4cccc([N+](=O)[O-])c4)N=C3c3ccccc3)sc2cc1C and report it.
> 100 µM

---

Tested on: SK-OV-3 ovarian
ASSAY_NAME: NCI tumour cell line growth inhibition, 48 h
Would you kindly list log10 of TGI for each of these molecules?
The common logarithm of TGI in µM is what is listed.

Some entries whose results are on file:
INSERT INTO results (molecule, experimental_result) VALUES
  ('CCC1(OC(=O)CN2CCN(CCO)CC2)C(=O)OCc2c1cc1n(c2=O)Cc2cc3ccccc3nc2-1 (configuration not stated)', 1.17),
  ('CC(C)(C)c1cc(C(=O)/C=C/c2ccc(O)c(O)c2O)cc(C(C)(C)C)c1O', 1.73),
  ('CC(CC(=O)CO[C@H]1[C@H](O)[C@@H](O)[C@@H](O)[C@@H]2NC(=O)c3c(cc4c(c3O)OCO4)[C@H]21)OC1OC(CO)C(O)C(O)C1O (some centres not stated)', 0.59),
  ('O=C1/C(=C\c2ccc([N+](=O)[O-])cc2)Sc2scc(-c3ccc(O)c(O)c3)[n+]21', 1.42);

Look at each molecule and report its log10 of TGI.
1. CC(O)c1c2c(cc3c1CC1(C3)Cc3cc4c(c(C(C)O)c3C1)CCC4)CCC2 (configuration not stated)
2. Cc1cc2c(C)c3cc(C)c(N)cc3nc2cc1N

1. 1.78
2. 0.92

---

Tested on: MDA-MB-231 breast
ASSAY_NAME: NCI tumour cell line growth inhibition, 48 h
OBSERVATION_TYPE: TGI

Some entries whose results are on file:
INSERT INTO assay_data (compound, observation_type, experimental_result) VALUES
  ('Clc1ccccc1/C=C/c1nsc(/C=C/c2ccccc2Cl)n1', 'TGI', '> 100 µM'),
  ('CSCCC(NCc1c(O)ccc2ccc(=O)oc12)C(=O)O (stereo unspecified)', 'TGI', '> 100 µM'),
  ('Cn1c(=O)n2n(c1=O)Cc1cccc3cccc(c13)C2', 'TGI', '> 100 µM'),
  ('O=S(=O)(c1cc(Cl)ccc1Cl)N1CCN(c2ccc(Cl)c(Cl)c2)CC1', 'TGI', '> 100 µM'),
  ('O=[N+]([O-])c1ccc(Cl)cc1-n1nc(-c2ccccc2)cc1-c1ccccc1', 'TGI', '> 100 µM');

Look at each compound and report its TGI.
1. O=C(Nc1n[nH]c2nc(-c3ccco3)c(Br)cc12)C1CC1
2. COc1ccc(-c2cc(-c3ccc(Nc4nc(Nc5ccc(Cl)cc5)nc(Nc5ccc(Cl)cc5)n4)cc3)nc(N)c2C#N)cc1
3. N#C/C(=C\c1c(-c2ccccc2)[nH]c2ccccc12)C(=O)c1ccc(Cl)cc1

["> 25 µM", "3.23 µM", "47.8 µM"]
